// Plant response rating, Corn lookup, one value per entry
test system: corn (Zea mays); experiment: Test A pre-/postemergence plant response; assay type: in vivo; settings: Postemergence, 500 g ai/ha; 0 to 100 scale, 0 = no effect, 100 = complete control; approx. ten days
Output: the number by itself.

Report Plant response rating, Corn for O=C1CCCC(O)=C1C(=O)c1cnc(-c2cccc(Cl)c2)n(-c2ccc(Cl)cc2)c1=O [Compound 64] tested on corn (Zea mays).
60

Again, but for Cc1ccccc1-n1c(-c2cccc(Cl)c2)ncc(C(=O)C2=C(O)CCCC2=O)c1=O [Compound 36]
60

Again, but for CCCCn1c(-c2ccccc2)ncc(C(=O)C2=C(O)CCCC2=O)c1=O [Compound 86]
50

Again, but for O=C1CCCC(O)=C1C(=O)c1cnc(-c2ccccc2)n(-c2ccccc2F)c1=O [Compound 26]
20

Again, but for CCCn1c(-c2ccc3ccccc3c2)ncc(C(=O)C2=C(O)CCCC2=O)c1=O [Compound 150]
0

Again, but for Cc1ccc(F)cc1-n1c(-c2ccccc2)ncc(C(=O)C2=C(O)CCCC2=O)c1=O [Compound 44]
40

Again, but for Cc1cc(-n2c(-c3cccc(Cl)c3)ncc(C(=O)C3=C(O)CCCC3=O)c2=O)ccc1F [Compound 133]
40

Again, but for CCCc1ncc(C(=O)C2=C(O)CCCC2=O)c(=O)n1CC1CCCO1 (centres unmarked) [Compound 74]
20

Again, but for CCCCn1c(-c2cccc(Br)c2)ncc(C(=O)C2=C(O)CCCC2=O)c1=O [Compound 138]
20

Again, but for C=CCn1c(-c2ccccc2)ncc(C(=O)C2=C(O)CCCC2=O)c1=O [Compound 23]
0

Again, but for CCn1ncc(C(=O)c2cnc(-c3ccccc3)n(-c3ccccc3)c2=O)c1OS(=O)(=O)c1ccc(C)cc1 [Compound 16]
20

Again, but for CCCn1c(-c2cccs2)ncc(C(=O)C2=C(O)CCCC2=O)c1=O [Compound 77]
20

Again, but for CCCCc1ncc(C(=O)C2=C(O)CCCC2=O)c(=O)n1-c1ccc(C)cc1 [Compound 67]
10

Again, but for Cc1ccc(-c2ncc(C(=O)C3=C(O)CCCC3=O)c(=O)n2-c2ccccc2)cc1 [Compound 80]
50

Again, but for CCCCCn1c(-c2ccccc2)ncc(C(=O)C2=C(O)CCCC2=O)c1=O [Compound 89]
10

Again, but for COCC(C)n1c(-c2ccccc2)ncc(C(=O)C2=C(O)CCCC2=O)c1=O (centres unmarked) [Compound 107]
50

Again, but for O=C1CCCC(O)=C1C(=O)c1cnc(-c2ccccc2)n(-c2cccc(F)c2)c1=O [Compound 22]
40

###

// Corn plant response rating lookup, one value per entry
system: corn (Zea mays); experiment: Test A pre-/postemergence plant response; format: in vivo; settings: Postemergence, 500 g ai/ha; visual injury, 0 to 100 scale (0 no effect, 100 complete control), approx. ten days
Output: the number by itself.

// below: answered compounds
Looking for the measured Corn plant response rating of Cc1cccc(-c2ncc(C(=O)C3=C(O)CCCC3=O)c(=O)n2-c2ccccc2C)c1 [Compound 210] , can you help?
0

Again, but for O=C(C1=C(O)C2CCC(C2)C1=O)c1cnc(-c2cccc(Br)c2)n(C2CCCCC2)c1=O (stereo not shown) [Compound 252]
10

Again, but for COCCCn1c(-c2cccc(F)c2)ncc(C(=O)C2=C(O)C3CCC(C3)C2=O)c1=O (stereo not shown) [Compound 238]
80

Next:
Looking for the measured Corn plant response rating of COc1ccc(-n2c(-c3ccccc3)ncc(C(=O)C3=C(O)CCCC3=O)c2=O)cc1OC [Compound 218] , can you help?
70
